Target: ABCG2 (Homo sapiens, UniProt Q9UNQ0)
Sequence (Q9UNQ0 whole entry): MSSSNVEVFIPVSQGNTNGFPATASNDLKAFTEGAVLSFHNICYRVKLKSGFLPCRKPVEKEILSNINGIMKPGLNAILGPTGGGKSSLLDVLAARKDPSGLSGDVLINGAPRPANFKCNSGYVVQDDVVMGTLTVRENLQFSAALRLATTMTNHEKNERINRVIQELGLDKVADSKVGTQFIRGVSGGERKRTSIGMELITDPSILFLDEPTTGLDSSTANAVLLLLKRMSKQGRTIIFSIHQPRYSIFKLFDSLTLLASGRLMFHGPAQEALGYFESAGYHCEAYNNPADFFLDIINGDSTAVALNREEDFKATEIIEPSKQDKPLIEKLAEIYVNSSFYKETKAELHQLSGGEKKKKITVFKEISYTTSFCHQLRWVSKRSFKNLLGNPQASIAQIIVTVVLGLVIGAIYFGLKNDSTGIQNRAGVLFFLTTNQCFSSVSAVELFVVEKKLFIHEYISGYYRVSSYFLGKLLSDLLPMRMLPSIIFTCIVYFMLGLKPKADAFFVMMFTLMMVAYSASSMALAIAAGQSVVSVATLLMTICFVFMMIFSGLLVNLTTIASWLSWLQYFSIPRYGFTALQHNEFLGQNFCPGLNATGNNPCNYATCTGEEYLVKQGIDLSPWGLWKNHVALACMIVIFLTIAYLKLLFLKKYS
Details: hek293/abcg2 inside-out membrane vesicles
measurement-type: Km (µM)

[[record]]
molecule_smiles = "O=C1c2c(O)ccc(O)c2C(=O)c2c(NCCNCCO)ccc(NCCNCCO)c21"
measurement_type = "Km"
test_value = 2.3

